- Method summary: Taste modulating activity of the individual compounds
- Condition context: individual compounds, Example 1
Observable: taste modulating activity

Consider the worked cases shown below.
[[record]]
compound = "O=C(O)C1OC(Oc2cc3oc(-c4ccccc4)cc(=O)c3c(O)c2O)C(O)C(O)C1O (stereo not drawn) [Baicalin, 5,6-dihydroxy-7-O-glucuronide flavone, reference compound]"
observable = "taste modulating activity"
result = "some activity"

[[record]]
compound = "O=c1cc(-c2ccccc2)oc2cc(O)c(O)c(O)c12 [Baicalein, 5,6,7-trihydroxyflavone]"
observable = "taste modulating activity"
result = "more active"

[[record]]
compound = "COc1c(OC2OC(C(=O)O)C(O)C(O)C2O)cc(O)c2c(=O)cc(-c3ccccc3)oc12 [Wogonoside, wogonin 7-O-β-D-glucuronide, reference compound]"
observable = "taste modulating activity"
result = "some activity"

[[record]]
compound = "COc1c(OC2OC(C(=O)O)C(O)C(O)C2O)cc2oc(-c3ccccc3)cc(=O)c2c1O (stereo not drawn) [Oroxylin A-7 glucuronide, reference compound]"
observable = "taste modulating activity"
result = "some activity"


// query taste modulating activity value for entry COc1c(O)cc2oc(-c3ccccc3)cc(=O)c2c1O [Oroxylin A, 5,7-dihydroxy-6-methoxyflavone]
more active

What does the data say about its taste modulating activity? Entry: COc1c(O)cc(O)c2c(=O)cc(-c3ccccc3)oc12 [Wogonin, 5,7-dihydroxy-8-methoxyflavone]
more active

###

- Method summary: Masking effect on Acesulfame-K, trained panel
- Set-up: species or system human
- Condition context: base Acesulfame-K 300 ppm in water; test sample 0.5 ppm; panel average, scale 0-5
Observable: Masking Intensity
Lab note: write the figure by itself, no unit.

# example entries with known answers
[[record]]
compound = "COc1c(O)cc2oc(-c3ccccc3)cc(=O)c2c1O [Oroxylin A, 5,7-dihydroxy-6-methoxyflavone]"
quantitative_readout = 5

[[record]]
compound = "O=c1cc(-c2ccccc2)oc2cc(O)c(O)c(O)c12 [Baicalein, 5,6,7-trihydroxyflavone]"
quantitative_readout = 2

[[record]]
compound = "COc1c(O)cc(O)c2c(=O)cc(-c3ccccc3)oc12 [Wogonin, 5,7-dihydroxy-8-methoxyflavone]"
quantitative_readout = 4


Need Masking Intensity of COc1c(OC2OC(C(=O)O)C(O)C(O)C2O)cc2oc(-c3ccccc3)cc(=O)c2c1O (stereo not drawn) [Oroxylin A-7 glucuronide, reference compound] , thanks.
1

Report Masking Intensity for O=C(O)C1OC(Oc2cc3oc(-c4ccccc4)cc(=O)c3c(O)c2O)C(O)C(O)C1O (stereo not drawn) [Baicalin, 5,6-dihydroxy-7-O-glucuronide flavone, reference compound] please.
1

Consider the compound shown here: COc1c(OC2OC(C(=O)O)C(O)C(O)C2O)cc(O)c2c(=O)cc(-c3ccccc3)oc12 [Wogonoside, wogonin 7-O-β-D-glucuronide, reference compound] What is its recorded Masking Intensity?
1

###

- Method summary: Masking effect on benzoic acid, trained panel
- Design: species or system human
- Condition context: base benzoic acid 250 ppm in water; test sample 0.5 ppm; panel average, scale 0-5
Observable: Masking Intensity

[[record]]
molecule = "COc1c(OC2OC(C(=O)O)C(O)C(O)C2O)cc2oc(-c3ccccc3)cc(=O)c2c1O (stereo not drawn) [Oroxylin A-7 glucuronide, reference compound]"
observable = "Masking Intensity"
result = 1

[[record]]
molecule = "COc1c(OC2OC(C(=O)O)C(O)C(O)C2O)cc(O)c2c(=O)cc(-c3ccccc3)oc12 [Wogonoside, wogonin 7-O-β-D-glucuronide, reference compound]"
observable = "Masking Intensity"
result = 1

[[record]]
molecule = "COc1c(O)cc(O)c2c(=O)cc(-c3ccccc3)oc12 [Wogonin, 5,7-dihydroxy-8-methoxyflavone]"
observable = "Masking Intensity"
result = 5

[[record]]
molecule = "COc1c(O)cc2oc(-c3ccccc3)cc(=O)c2c1O [Oroxylin A, 5,7-dihydroxy-6-methoxyflavone]"
observable = "Masking Intensity"
result = 4

[[record]]
molecule = "O=c1cc(-c2ccccc2)oc2cc(O)c(O)c(O)c12 [Baicalein, 5,6,7-trihydroxyflavone]"
observable = "Masking Intensity"
result = 3


Then this molecule:
// lookup Masking Intensity for O=C(O)C1OC(Oc2cc3oc(-c4ccccc4)cc(=O)c3c(O)c2O)C(O)C(O)C1O (stereo not drawn) [Baicalin, 5,6-dihydroxy-7-O-glucuronide flavone, reference compound]
1
